Molecular target: T1, PD-1 molecule (refolded, purified and biotinylated PD-1 of Example 2) (UniProt Q15116 33-150, biotinylated with BirA enzyme (site not stated))
T1 construct: also called Programmed Death-1
T1 sequence (Q15116 33-150 limits assumed): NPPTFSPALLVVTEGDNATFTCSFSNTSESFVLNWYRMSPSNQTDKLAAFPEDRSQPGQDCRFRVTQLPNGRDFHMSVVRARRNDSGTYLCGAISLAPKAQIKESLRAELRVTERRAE
Experiment: SPR (BIAcore T200), single-cycle kinetics; biotinylated PD-1 captured via streptavidin, PDL-1 variant in solution
Method: The anti-streptavidin antibody (GenScript) was added to the coupling buffer (10 mM sodium acetate buffer, pH 4.77). The antibody was then flowed through a CMS chip previously activated with EDC and NHS to immobilize the antibody on the chip surface. Finally, the unreacted activation surface was blocked with a solution of ethanolamine hydrochloride to complete the coupling process. […]
Documented Kd across a set of binders
Give the number; nM is assumed, so skip it.

{"columns": ["Binder", "Measurement Units", "Kd"],
 "data": [
  ["high affinity PDL-1 molecule L3B3a (ligand) FTVTVPKDLYVVEYGSNMTIECKFPVEKQLDLAALQVFWMMEDKNIVSFVHGEEDLKVQHSSYRQRARLLKDQLSLGNAALQITDVKLQDAGVYTCLIAYKGADYKRITVKVNAPYNKINQRILVVDPVTSEHELTCQAEGYPKAEVIWTSSDHQVLSGKTTTTNSKREEKLFNVTSTLRINTTTNEIFYCTFRRLDPEENHTAELVIPEL", "nM", 557]
]}

// query Requested read-out: Kd. Entry: high affinity PDL-1 molecule L3C7a (ligand) FTVTVPKDLYVVEYGSNMTIECKFPVEKQLDLAALEVHWFMEDKNIFSFVHGEEDLKVQHSSYRQRARLLKDQLSLGNAALQITDVKLQDAGVYTCLIGYKGADYKRITVKVNAPYNKINQRILVVDPVTSEHELTCQAEGYPKAEVIWTSSDHQVLSGKTTTTNSKREEKLFNVTSTLRINTTTNEIFYCTFRRLDPEENHTAELVIPEL
// result 115
